Reference for the values: patent US20250361288A1

- targetOrTestSystem: T1, mouse HVEM extracellular domain fused with an Fc fragment at the C-terminus (mouse, UniProt Q80WM9 39-206, limits assumed)
- T1 construct: extracellular domain; Bought; also called mHVEM; not shown: Fc fragment at the C-terminus
- T1 sequence (looked up): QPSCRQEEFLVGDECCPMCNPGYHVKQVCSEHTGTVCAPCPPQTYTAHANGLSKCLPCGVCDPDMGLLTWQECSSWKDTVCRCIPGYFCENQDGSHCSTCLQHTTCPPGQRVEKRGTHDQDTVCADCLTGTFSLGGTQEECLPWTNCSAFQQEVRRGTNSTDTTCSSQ
- methodSummary: phage ELISA
reportedProperty: binding result

binder	binding result
LIGHT-46 (ligand, Printed mutations: L126M, K214E; Soluble protein carries an N-terminal His tag) DGPAGSWEQLIQERRSHEVNPAAHLTGANSSLTGSGGPLLWETQLGLAFLRGMSYHDGALVVTKAGYYYIYSKVQLGGVGCPLGLASTITHGLYKRTPRYPEELELLVSQQSPCGRATSSSRVWWDSSFLGGVVHLEAGEEVVVRVLDERLVRLRDGTRSYFGAFMV	binds
LIGHT-49 (ligand, Printed mutations: L105P, Q117R, L220Q; Soluble protein carries an N-terminal His tag) DGPAGSWEQLIQERRSHEVNPAAHLTGANSSPTGSGGPLLWETRLGLAFLRGLSYHDGALVVTKAGYYYIYSKVQLGGVGCPLGLASTITHGLYKRTPRYPEELELLVSQQSPCGRATSSSRVWWDSSFLGGVVHLEAGEKVVVRVQDERLVRLRDGTRSYFGAFMV	binds
LIGHT-8 (ligand, Printed mutations: G150S, S160G, L220S; Soluble protein carries an N-terminal His tag) DGPAGSWEQLIQERRSHEVNPAAHLTGANSSLTGSGGPLLWETQLGLAFLRGLSYHDGALVVTKAGYYYIYSKVQLSGVGCPLGLAGTITHGLYKRTPRYPEELELLVSQQSPCGRATSSSRVWWDSSFLGGVVHLEAGEKVVVRVSDERLVRLRDGTRSYFGAFMV	binds
LIGHT-38 (ligand, Printed mutations: Q184R, W198Q; Soluble protein carries an N-terminal His tag) DGPAGSWEQLIQERRSHEVNPAAHLTGANSSLTGSGGPLLWETQLGLAFLRGLSYHDGALVVTKAGYYYIYSKVQLGGVGCPLGLASTITHGLYKRTPRYPEELELLVSQRSPCGRATSSSRVWQDSSFLGGVVHLEAGEKVVVRVLDERLVRLRDGTRSYFGAFMV	binds
LIGHT-7 (ligand, Printed mutations: P155R, L220Q, R232H; Soluble protein carries an N-terminal His tag) DGPAGSWEQLIQERRSHEVNPAAHLTGANSSLTGSGGPLLWETQLGLAFLRGLSYHDGALVVTKAGYYYIYSKVQLGGVGCRLGLASTITHGLYKRTPRYPEELELLVSQQSPCGRATSSSRVWWDSSFLGGVVHLEAGEKVVVRVQDERLVRLRDGTHSYFGAFMV	binds

Could you now consider this next binder?
Tell me the measured binding result of LIGHT-35 (ligand, Printed mutations: T161S, L220S, E222N; Soluble protein carries an N-terminal His tag) DGPAGSWEQLIQERRSHEVNPAAHLTGANSSLTGSGGPLLWETQLGLAFLRGLSYHDGALVVTKAGYYYIYSKVQLGGVGCPLGLASSITHGLYKRTPRYPEELELLVSQQSPCGRATSSSRVWWDSSFLGGVVHLEAGEKVVVRVSDNRLVRLRDGTRSYFGAFMV , please.
binds
